meta.source: paper PMC5908295

# test method notes: Pharmacokinetics after oral and intravenous administration
# Format: in vivo, mice (CD-1)
# run parameters: female, CD-1, plasma, 50 mg/kg; Mouse, Dose PO/IV 50/15 mg/kg; read-out: F (bioavailability)
property label: bioavailability (%)

>>> numeric_value("CC(C)n1c(C2CCNCC2)nc2c([N+](=O)[O-])c(Br)c(Br)cc21 [SEL24-B489]")
62

----------
# Tested on: SIG-M5
# test method notes: MTS viability assay, 72 h
# run parameters: read-out: LC50; SIG-M5, 72 h; 50% death relative to T0
property label: CC50

>>> result("N[C@@H]1CCCN(c2c(/C=C3\\SC(=O)NC3=O)cccc2-c2ccccc2)C1 [AZD1208]")
"> 10 µM"
